So I've got pIC50 readings for Rat CYP 17 Lyase (Rattus norvegicus (Rat), UniProt P11715), take a look.
# pIC50: negative log10 of molar concentration; output just the value

>>> assay_value("O=C1N(c2ccnc(Cl)c2)CCN1c1cnccc1C1CC1")
8.57

Input: Fill: pIC50 (Rat CYP 17 Lyase (Rattus norvegicus (Rat), UniProt P11715)) for this compound `COc1cc(N2CCN(c3cnccc3C3CC3)C2=O)ccn1`
Output: 8.34

Input: // fetch pIC50 for O=C1N(c2cnccc2C2CC2)[C@@H]2C[C@@H]2N1c1ccnc(C(F)(F)F)c1 [Example 32A-II] ; system: Rat CYP 17 Lyase (Rattus norvegicus (Rat), UniProt P11715)
Sequence (P11715 whole entry): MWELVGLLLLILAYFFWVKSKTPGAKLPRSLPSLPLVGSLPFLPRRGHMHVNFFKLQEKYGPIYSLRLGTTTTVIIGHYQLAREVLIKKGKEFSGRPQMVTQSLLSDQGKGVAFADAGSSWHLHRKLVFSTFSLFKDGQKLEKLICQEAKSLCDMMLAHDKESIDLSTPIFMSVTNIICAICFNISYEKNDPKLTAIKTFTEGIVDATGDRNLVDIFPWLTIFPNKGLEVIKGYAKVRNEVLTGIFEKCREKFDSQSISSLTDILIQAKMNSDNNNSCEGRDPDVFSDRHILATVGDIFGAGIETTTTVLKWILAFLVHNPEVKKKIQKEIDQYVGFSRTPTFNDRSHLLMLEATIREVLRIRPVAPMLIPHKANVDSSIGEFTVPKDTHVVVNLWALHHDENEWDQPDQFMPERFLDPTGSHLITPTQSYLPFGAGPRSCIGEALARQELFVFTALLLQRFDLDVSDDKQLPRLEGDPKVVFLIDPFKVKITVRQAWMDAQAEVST
Output: 8.52

Input: Give pIC50; test system Rat CYP 17 Lyase (Rattus norvegicus (Rat), UniProt P11715); compound `O=C1N(c2ccnc(C(F)(F)F)c2)CCN1c1cnccc1C1CC1`
Output: 8.96
